Ref: patent US20210363269A1

target: T1, human SIRP-α v1 D1 domain (human, UniProt P78324 31-149); assay: SPR, antibody immobilised on GLC chip
T1 construct: also called human v1; human α v1
T1 sequence (P78324 31-149 limits assumed): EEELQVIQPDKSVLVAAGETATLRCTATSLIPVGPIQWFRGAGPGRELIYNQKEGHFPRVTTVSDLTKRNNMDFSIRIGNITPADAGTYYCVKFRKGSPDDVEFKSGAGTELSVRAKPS

BINDER	UNITS SYMBOL	Kd
AB119a (antibody, human IgG1, V domains shown, Full-length human IgG1 with L234A, L235A, G237A and N297A; only variable domains tied to the clone) VH: DVQLLESGGGVVQPGGSLRLSCAASGFSFSNFAMTWVRQAPGEGLEWVSTIGSGDTYYADSVKGRFTISRDNSKNTLYLQMNSLRAEDTAVYYCAKDSTVSWSGDFFDYWGLGTLVTVSS VL: EIVLTQSPATLSVSPGERATFSCRASQNVKNDLAWYQQRPGQAPRLLIYAARIRETGIPERFSGSGSGTEFTLTITSLQSEDFAVYYCQQYYDWPPFTFGGGTKVEIK	nM	0.183
antibody 119 variant mut/wt (VL mut all / VH wt) (antibody, human IgG1, V domains shown, Human IgG1 with L234A/L235A/G237A/N297A; Labels are in the order VL/VH) VH: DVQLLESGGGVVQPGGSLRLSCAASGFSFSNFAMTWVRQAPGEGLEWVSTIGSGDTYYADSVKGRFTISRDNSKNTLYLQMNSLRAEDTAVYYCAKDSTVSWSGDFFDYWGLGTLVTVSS VL: EIVLTQSPATLSVSPGERATLSCRASQNVKNDLAWYQQKPGQAPRLLIYAARIRETGIPARFSGSGSGTEFTLTISSLQSEDFAVYYCQQYYDWPPFTFGGGTKVEIK	nM	0.214
AB119 Wt/wt with hIgG4 (antibody, V domains shown, Human IgG4 Fc region with S228P (EU numbering); only variable domains tied to the clone) VH: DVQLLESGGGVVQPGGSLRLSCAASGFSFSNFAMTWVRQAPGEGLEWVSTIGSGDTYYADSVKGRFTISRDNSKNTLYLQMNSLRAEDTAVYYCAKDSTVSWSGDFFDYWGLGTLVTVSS VL: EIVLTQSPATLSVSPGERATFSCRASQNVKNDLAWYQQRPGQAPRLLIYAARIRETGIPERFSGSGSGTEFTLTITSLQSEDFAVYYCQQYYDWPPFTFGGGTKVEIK	nM	0.174
